System: 885512-296-R-J2-PDC complex spheroid growth, % test/control;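 note: spheroids exposed to compounds for seven days; 100% = DMSO vehicle control wells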
Experiment: Anticancer human tumor 885512-296-R-J2-PDC patient-derived breast carcinoma cell line growth inhibition [Asc]
Conditions: second compound 0.0949 µM; first compound 0.0316 µM; active compounds read low
Here the recorded viability, T/C is given for each entry.
reported-property: viability, T/C

[[record]]
molecule = "COc1c(OCCCN2CCOCC2)ccc2c3n(c(=NC(=O)c4cnc(N)nc4)nc12)CCN3 + CCN1C(C(=O)NC23CCC(C(=O)O)(CC2)CC3)C(c2cccc(Cl)c2F)C2(C(=O)Nc3cc(Cl)ccc32)C12CCCCC2"
observed_result = "79.8%"

[[record]]
molecule = "CNC(C)C(=O)NC1CN(S(=O)(=O)c2cccc(S(=O)(=O)N3CCC4CCC(C(=O)NC(c5ccccc5)c5ccccc5)N4C(=O)C(NC(=O)C(C)NC)C3)c2)CCC2CCC(C(=O)NC(c3ccccc3)c3ccccc3)N2C1=O (stereo not given) + CCN1C(C(=O)NC23CCC(C(=O)O)(CC2)CC3)C(c2cccc(Cl)c2F)C2(C(=O)Nc3cc(Cl)ccc32)C12CCCCC2"
observed_result = "90.3%"

[[record]]
molecule = "CCN1CCN(Cc2ccc(Nc3ncc(F)c(-c4cc(F)c5nc(C)n(C(C)C)c5c4)n3)nc2)CC1 + CCN1C(C(=O)NC23CCC(C(=O)O)(CC2)CC3)C(c2cccc(Cl)c2F)C2(C(=O)Nc3cc(Cl)ccc32)C12CCCCC2"
observed_result = "80.5%"

[[record]]
molecule = "O=C(c1ccc(F)c(F)c1Nc1ccc(I)cc1F)N1CC(O)([C@@H]2CCCCN2)C1 + CCN1C(C(=O)NC23CCC(C(=O)O)(CC2)CC3)C(c2cccc(Cl)c2F)C2(C(=O)Nc3cc(Cl)ccc32)C12CCCCC2"
observed_result = "66.5%"

[[record]]
molecule = "Cn1ncnc1[C@H]1c2n[nH]c(=O)c3cc(F)cc(c23)N[C@@H]1c1ccc(F)cc1 + CCN1C(C(=O)NC23CCC(C(=O)O)(CC2)CC3)C(c2cccc(Cl)c2F)C2(C(=O)Nc3cc(Cl)ccc32)C12CCCCC2"
observed_result = "57%"

[[record]]
molecule = "C=CC(=O)N1CCN(c2nc(=O)n(-c3c(C)ccnc3C(C)C)c3nc(-c4c(O)cccc4F)c(F)cc23)C(C)C1 (stereo not given) + CCN1C(C(=O)NC23CCC(C(=O)O)(CC2)CC3)C(c2cccc(Cl)c2F)C2(C(=O)Nc3cc(Cl)ccc32)C12CCCCC2"
observed_result = "73.5%"

[[record]]
molecule = "NC1CCC(NC2CC2c2ccccc2)CC1 (stereo not given) + CCN1C(C(=O)NC23CCC(C(=O)O)(CC2)CC3)C(c2cccc(Cl)c2F)C2(C(=O)Nc3cc(Cl)ccc32)C12CCCCC2"
observed_result = "124%"

[[record]]
molecule = "C=C(F)C(=O)N1CCN(c2nc(OCC3CCCN3C)nc3c2CCN(c2cccc4cccc(Cl)c24)C3)CC1CC#N (stereo not given) + CCN1C(C(=O)NC23CCC(C(=O)O)(CC2)CC3)C(c2cccc(Cl)c2F)C2(C(=O)Nc3cc(Cl)ccc32)C12CCCCC2"
observed_result = "118%"

[[record]]
molecule = "O=C(c1cc(Cc2n[nH]c(=O)c3ccccc23)ccc1F)N1CCN(C(=O)C2CC2)CC1 + CCN1C(C(=O)NC23CCC(C(=O)O)(CC2)CC3)C(c2cccc(Cl)c2F)C2(C(=O)Nc3cc(Cl)ccc32)C12CCCCC2"
observed_result = "98.8%"

[[record]]
molecule = "C#Cc1c(F)ccc2cc(O)cc(-c3ncc4c(N5CC6CCC(C5)N6)nc(OCC56CCCN5CC(F)C6)nc4c3F)c12 (stereo not given) + CCN1C(C(=O)NC23CCC(C(=O)O)(CC2)CC3)C(c2cccc(Cl)c2F)C2(C(=O)Nc3cc(Cl)ccc32)C12CCCCC2"
observed_result = "117%"

